Attribution: paper PMC8208316

protocolDescription: Kinetics of RSSH release
Type: physicochemical
experimentalConditions: phosphate buffered saline with MMTS (1 mM) as RSSH trap, pH 7.4
recordedEndpoint: half-life at 100 µM (min)

Consider the reported half-life at 100 µM for these compounds:
Enquiry: Consider the compound COC(=O)C(NC(C)=O)C(C)(C)SSC(=O)Oc1ccc(F)cc1 (stereo not drawn) and give its measured half-life at 100 µM.
Return: 96

Enquiry: # get_value(readout='half-life at 100 µM', item= COC(=O)C(NC(C)=O)C(C)(C)SSC(=O)Oc1ccc(C)cc1 (stereo not drawn) )
Return: 137

Enquiry: I'd like to know its half-life at 100 µM. The compound in question is COC(=O)C(NC(C)=O)C(C)(C)SSC(=O)Oc1ccc(OC)cc1 (stereo not drawn)
Return: 147

[A] COC(=O)C(NC(C)=O)C(C)(C)SSC(=O)Oc1ccccc1 (stereo not drawn)
[B] COC(=O)C(NC(C)=O)C(C)(C)SSC(=O)Oc1ccc(C#N)cc1 (stereo not drawn)
[C] COC(=O)C(NC(C)=O)C(C)(C)SSC(=O)OCc1ccccc1 (stereo not drawn)
Enquiry: Put the entries in order of half-life at 100 µM, starting with the largest number. # list labels per requested ordering
Return: C, A, B

----------
protocolDescription: Kinetics of RSSH release
Type: physicochemical
experimentalConditions: precursor 100 μM, MMTS 1 mM, pH 7.4 PBS containing DTPA, 37 °C; HPLC
recordedEndpoint: phenol byproduct 4a–f yield (%)

Enquiry: Report phenol byproduct 4a–f yield for COC(=O)C(NC(C)=O)C(C)(C)SSC(=O)Oc1ccc(C#N)cc1 (stereo not shown) please.
Return: 97

Enquiry: Would you kindly share the measured phenol byproduct 4a–f yield for COC(=O)C(NC(C)=O)C(C)(C)SSC(=O)Oc1ccc(F)cc1 (stereo not shown) ?
Return: 96

Enquiry: Would you kindly share the measured phenol byproduct 4a–f yield for COC(=O)C(NC(C)=O)C(C)(C)SSC(=O)Oc1ccc(OC)cc1 (stereo not shown) ?
Return: 92

Enquiry: Item COC(=O)C(NC(C)=O)C(C)(C)SSC(=O)Oc1ccc(C)cc1 (stereo not shown) has what recorded phenol byproduct 4a–f yield?
Return: 93
